# experimental target: cAMP-dependent protein kinase catalytic subunit alpha (Homo sapiens) (UniProt P17612);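 note: reported value is the mean percent inhibition of PKA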
# experimental setup: at 0.1 µM
attribute measured: inhibition (%)
The answer is to be given in %; state only the numeric part.

Answered cases to consult:
>  <smiles record>
CN(c1ccc(NC(=O)NCCN2CCOCC2)cc1)c1ccnc(Nc2ccc(CS(C)(=O)=O)cc2)n1

>  <unit annotation>
%

>  <inhibition>
1.27

$$$$
>  <smiles record>
O=C(Nc1n[nH]c2nnc(-c3cccnc3)cc12)C1CC1

>  <unit annotation>
%

>  <inhibition>
-0.44

$$$$
>  <smiles record>
OCCCNc1nccc(-c2c(-c3ccc(F)cc3)nn3cc(C(F)(F)F)ccc23)n1

>  <unit annotation>
%

>  <inhibition>
5.3

$$$$
>  <smiles record>
COc1cc(N2CCN(C(C)C)CC2)ccc1Nc1nc(Nc2cccc(F)c2C(=O)O)c2cc[nH]c2n1

>  <unit annotation>
%

>  <inhibition>
1.49

$$$$

Bench note: what inhibition did COc1cccc(-n2ncc3c(N/N=C/c4ccc(C(=O)NCCN(C)C)cc4)ncnc32)c1 show? 2.29

###

# experimental target: MAP kinase-activated protein kinase 3 (Homo sapiens) (UniProt Q16644)
# Sequence (Q16644 whole entry, looked up): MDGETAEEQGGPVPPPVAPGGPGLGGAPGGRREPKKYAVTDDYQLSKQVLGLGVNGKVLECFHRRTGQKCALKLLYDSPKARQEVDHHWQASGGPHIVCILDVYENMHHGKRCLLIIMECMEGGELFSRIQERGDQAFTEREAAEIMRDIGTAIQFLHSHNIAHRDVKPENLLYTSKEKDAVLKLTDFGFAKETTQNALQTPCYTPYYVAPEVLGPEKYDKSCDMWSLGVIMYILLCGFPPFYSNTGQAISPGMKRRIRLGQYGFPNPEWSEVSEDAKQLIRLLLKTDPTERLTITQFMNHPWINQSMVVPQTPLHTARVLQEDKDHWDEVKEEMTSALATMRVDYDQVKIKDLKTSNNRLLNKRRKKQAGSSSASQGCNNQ
# experimental setup: at 0.1 µM
# Description: GSK_PKIS: MAPKAPK3 mean inhibition at 0.1 uM [Nanosyn]
Could you label it Condition met if measured inhibition is 5% or higher, and Condition not met otherwise?

Reference set (3 entries):
>  <smiles record>
CS(=O)(=O)CCNCc1ccc(-c2ccc3ncnc(Nc4ccc(OCc5ccccc5)cc4)c3c2)o1

>  <cat>
Condition not met

$$$$
>  <smiles record>
CCOc1ccc2c(-c3ccnc(Nc4cc(OC)cc(C(F)(F)F)c4)n3)cnn2n1

>  <cat>
Condition not met

$$$$
>  <smiles record>
NS(=O)(=O)c1cccc(N/C=C2\C(=O)Nc3ccccc32)c1

>  <cat>
Condition met

$$$$

Please tell me: is the compound COC(=O)Nc1nc2ccc(Oc3ccc(NC(=O)Nc4cc(C(F)(F)F)ccc4F)cc3)cc2s1 at or over 5% in terms of inhibition? Condition met

Please tell me: is the compound c1cnn2ncc(-c3ccnc(NCCCN4CCOCC4)n3)c2c1 at or over 5% in terms of inhibition? Condition not met

###

# experimental target: MAP kinase-activated protein kinase 5 (Homo sapiens)
# experimental setup: at 0.1 µM
attribute measured: inhibition (%)
The answer is to be given in %; state only the numeric part.

Answered cases to consult:
>  <smiles record>
N#Cc1cccc(Nc2ncc(-c3ccccc3)o2)c1

>  <experimental target>
MAP kinase-activated protein kinase 5 (Homo sapiens)

>  <unit annotation>
%

>  <inhibition>
1.22

$$$$
>  <smiles record>
O=C(O[C@H]1CN[C@H](C#Cc2cc3ncnc(Nc4ccc5c(ccn5Cc5cc(F)ccc5F)c4)c3s2)C1)N1CCOCC1

>  <experimental target>
MAP kinase-activated protein kinase 5 (Homo sapiens)

>  <unit annotation>
%

>  <inhibition>
1.04

$$$$
>  <smiles record>
CC1(C)CC(n2cnc(-c3ccc(F)cc3)c2-c2ccnc(N)n2)CC(C)(C)N1

>  <experimental target>
MAP kinase-activated protein kinase 5 (Homo sapiens)

>  <unit annotation>
%

>  <inhibition>
0.28

$$$$
>  <smiles record>
COc1cc(Nc2ncc(-c3ccccc3)o2)cc(OC)c1

>  <experimental target>
MAP kinase-activated protein kinase 5 (Homo sapiens);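 note: reported values are mean PRAK inhibition figures from the GSK PKIS screen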

>  <unit annotation>
%

>  <inhibition>
1.24

$$$$

Bench note: what inhibition did COc1ccc2ncn(-c3cc(O[C@H](C)c4ccccc4C(F)(F)F)c(C(N)=O)s3)c2c1 show? -0.11

Bench note: what inhibition did Fc1ccc(Nc2nccc(-c3c(-c4ccc(C(F)(F)F)cc4)nn4ncccc34)n2)cc1F show? 0.6

Bench note: what inhibition did COc1cc(N2CCN(C(C)C)CC2)ccc1Nc1nc(Nc2cccc(F)c2C(=O)O)c2cc[nH]c2n1 show? 1.35

Bench note: what inhibition did CNC(=O)c1cncc(/C=C/c2ccccc2C)c1 show? 1.79
